Task for the reader: assign each of the following compounds its reported AUC(0-t).
Assay: In vivo PK studies, intravenous injection
Conditions: rat, plasma, 1 mg/kg, male SD rats, 1 mpk
Answers are plain numbers, in µM·h.

[
  {
    "smiles.entry": "COCc1nc2c(c(Oc3ccc(F)cc3C(F)(F)F)n1)CCN(c1cn[nH]c(=O)c1Cl)C2",
    "AUC(0-t) / µM·h": 4.05
  },
  {
    "smiles.entry": "O=c1[nH]ncc(N2CCc3c(ncnc3Oc3ccc(F)cc3Br)C2)c1Cl",
    "AUC(0-t) / µM·h": 8.26
  },
  {
    "smiles.entry": "O=c1[nH]ncc(N2CCc3c(nc(CO)nc3Sc3ccc(F)cc3C(F)(F)F)C2)c1Cl",
    "AUC(0-t) / µM·h": 3.33
  },
  {
    "smiles.entry": "CC(F)(F)c1cc(F)ccc1Oc1ncnc2c1CCN(c1cn[nH]c(=O)c1Cl)C2",
    "AUC(0-t) / µM·h": 4.75
  },
  {
    "smiles.entry": "Nc1nc2c(c(Sc3ccc(F)cc3C(F)(F)F)n1)CCN(c1cn[nH]c(=O)c1Cl)C2",
    "AUC(0-t) / µM·h": 9.13
  }
]

Switching to the query record.
Could you share which AUC(0-t) value was measured for O=c1[nH]ncc(N2CCc3c(ncnc3Sc3ccc(F)cc3C(F)(F)F)C2)c1Cl ? 1.97

----------
Experiment: In vivo PK studies, intravenous injection
Conditions: rat, plasma, 1 mg/kg, male SD rats, 1 mpk
Flag rule - half-life less than 2 h flags True; the remaining entries get False.

In the record for CC(F)(F)c1cc(F)ccc1Oc1ncnc2c1CCN(c1cn[nH]c(=O)c1Cl)C2 , is half-life less than 2 h? True

// next record O=c1[nH]ncc(N2CCc3c(ncnc3Sc3ccc(F)cc3C(F)(F)F)C2)c1Cl True

// next record COCc1nc2c(c(Oc3ccc(F)cc3C(F)(F)F)n1)CCN(c1cn[nH]c(=O)c1Cl)C2 True

// next record Nc1nc2c(c(Sc3ccc(F)cc3C(F)(F)F)n1)CCN(c1cn[nH]c(=O)c1Cl)C2 False

// next record O=c1[nH]ncc(N2CCc3c(nc(CO)nc3Sc3ccc(F)cc3C(F)(F)F)C2)c1Cl False

----------
Experiment: In vivo PK studies, intravenous injection
Conditions: rat, plasma, 0.5 mg/kg, male SD rats, 0.5 mpk
reported.metric: AUC(0-t) (µM·h)
Give bare numbers, in µM·h.

Could you share which AUC(0-t) value was measured for O=c1[nH]ncc(N2CCc3c(ncnc3Oc3ccc(F)cc3C(F)(F)F)C2)c1Br [Compound WX009] ? 2.38

----------
Assay: Rat group tissue distribution test
Type: in vivo, SD male rats
Conditions: male, Sprague Dawley, rat, oral; Liver, 12 h, intragastric, SD rats, n = 3; read-out: Average drug concentration
Text: In this study, SD male rats were selected as the test animals, and the LC/MS/MS method was used to quantitatively determine the drug concentration at different time points in the plasma, cerebrospinal fluid, brain, liver, and kidney of the test compounds administered orally to evaluate the tissue distribution of the test drugs in the rats. Experimental materials: Sprague Dawley (SD) rats (male, 200-300 g, 7-10 weeks old, Beijing Vital River). […]
Task for the reader: assign each of the following compounds its reported concentration at 12 h.
Numbers only, in nM.

[
  {
    "smiles.entry": "Nc1nc2c(c(Sc3ccc(F)cc3C(F)(F)F)n1)CCN(c1cn[nH]c(=O)c1Cl)C2",
    "concentration at 12 h / nM": 945
  }
]

Switching to the query record.
Could you share which concentration at 12 h value was measured for O=c1[nH]ncc(N2CCc3c(nc(CO)nc3Sc3ccc(F)cc3C(F)(F)F)C2)c1Cl ? 570

Values from patent US20250122190A1
